The measurements presented in this section are drawn from ChEMBL document CHEMBL1158948.

Catalogue of compounds with associated IC90
# Tested on: Leishmania chagasi
# Assay remarks: Antileishmanial activity against Leishmania donovani chagasi after 48 hrs
# Assay type: functional

Below are worked cases with known answers.
COc1cc(C(C)C)c(OC)cc1C > 100 mg/L
COc1cc(C)c(O)c(OC)c1C(C)C 10 mg/L
COc1cc(C(C)C)ccc1C 25 mg/L

Turning to the following compound.
Input line: Any idea what IC90 was measured for COc1cc(C)c(OC)c(OC)c1C(C)C ?
Output line: > 100 mg/L

* * *

# Test system: Trypanosoma cruzi
# Assay remarks: Antitrypanosomal activity against Trypanosoma cruzi C8CL1 after 48 hrs
# Format: functional
Catalogue of molecules with associated IC90

Below are worked cases with known answers.
Molecule	Measurement
COc1cc(C)c(O)c(OC)c1C(C)C [ESPINTANOL]	25 µg/mL
COc1cc(C)c(OC)c(OC)c1C(C)C	> 100 µg/mL
COc1cc(C(C)C)ccc1C	> 100 µg/mL

Turning to the following molecule.
Input line: Any idea what IC90 was measured for COc1cc(C(C)C)c(OC)cc1C [THYMOQUINOL DIMETHYLETHER] ?
Output line: > 100 µg/mL
